# assay-info: FLuc inhibitory activity for the follow-up compounds in a cell-based translational read-through assay
# condition-set: GripTite 293 FLucUGA read-through, luminescence, 48 h; series mostly up to 38.3 µM
Results filed as inconclusive are left out. Activity calls are given as the source filed them. The call rests on the fitted dose curve; in most records, active means well fitted activation curve with a large enough effect; inconclusive means small, poorly fitted or top-dose-only effect; inactive means flat fitted curve, though single readings scatter.
I would appreciate it if you answered using one of these outcomes: yes = active, no = inactive

Would you please look over these solved cases?
CC(C)(C)C(=O)Nc1ccc(-c2nc3ccccc3s2)cc1	yes
Cc1cccc(C(=O)Nc2ccc(-c3nc4ccccc4s3)cc2Cl)c1	no
COc1cccc(OC)c1C(=O)Nc1cccc(C(=O)Nc2cccc(C(=O)O)c2)c1	no
Nc1ccc(-c2nc3cc(N)ccc3s2)cc1	yes
Cc1cccc(NS(=O)(=O)c2cccc(C(=O)Nc3cccc(C(=O)O)c3)c2)c1	no
Cc1ccc(S(=O)(=O)N2CCOCC2)cc1C(=O)Nc1ccccc1C(=O)O	no
O=C(Cc1ccccc1)Nc1ccc(C(=O)Nc2ccccc2C(=O)O)cc1	no
Cc1ccc(C(=O)Nc2cccc(C(=O)O)c2)cc1S(=O)(=O)N1CCCC1	yes
COc1ccc(C(=O)Nc2ccccc2C(=O)Nc2ccc(C(=O)O)cc2)cc1	yes
Nc1ccc(C(=O)Nc2ccccc2C(=O)O)cc1	no

Kindly review the next compound as well.
Entry COc1ccc2nc(NC(=O)c3cccc(S(=O)(=O)N4CCOCC4)c3)sc2c1 : call = ? no

---

# assay-info: FLuc inhibitory activity for the follow-up compounds in a cell-based translational read-through assay
# condition-set: GripTite 293 FLucUGA read-through, luminescence, 48 h; series mostly up to 38.3 µM
Results filed as inconclusive are left out. Activity calls are given as the source filed them. Calls come from the whole dose curve; as a rule, active = well fitted activation curve with a large enough effect; inconclusive = small, poorly fitted or top-dose-only effect; inactive = flat fitted curve, though single readings scatter.
parameter-measured: Potency

Take a look at these entries with their results.
CC(C)c1ccc(C(=O)Nc2ccc(-c3nc4ccccc4s3)c(Cl)c2)cc1	inactive
Cc1ccc(S(=O)(=O)N2CCN(C(=O)c3ccccc3-c3nc4ccccc4s3)CC2)c(C)c1	inactive
CC(C)C(=O)Nc1cccc(C(=O)Nc2ccccc2C(=O)O)c1	inactive
CCOc1c(Cl)cc(C(=O)Nc2ccccc2C(=O)O)cc1Cl	inactive
COc1ccccc1C(=O)Nc1ccc(C(=O)Nc2ccccc2C(=O)O)cc1	inactive
O=C(O)c1cccc(NC(=O)c2ccc(Cl)c(S(=O)(=O)N3CCCCCC3)c2)c1	0.711 µM (active)

So what's the measured Potency for this one? O=C(Nc1ccccc1C(=O)O)c1ccc(NC(=O)C2CC2)cc1 inactive

So what's the measured Potency for this one? Cc1ccc(C(=O)Nc2ccc(C(=O)O)cc2)cc1S(=O)(=O)NCc1ccccc1 inactive

So what's the measured Potency for this one? Cc1ccc(C(=O)O/N=C(\N)c2ccccn2)cc1 3.56 µM (active)

So what's the measured Potency for this one? Nc1ccc(-c2nc3ccc(C(=O)O)cc3s2)cc1 0.283 µM (active)

So what's the measured Potency for this one? O=C(O)c1ccc(NC(=O)c2cc(S(=O)(=O)N3CCCCC3)c(Cl)cc2Cl)cc1 inactive

So what's the measured Potency for this one? CCCC(=O)Nc1nc2ccc(OCC)cc2s1 12.6 µM (active)

So what's the measured Potency for this one? O=C(Nc1ccccc1C(=O)O)c1ccc(NC(=O)C2CCCCC2)cc1 inactive

So what's the measured Potency for this one? COc1ccc(-c2cccc(C(=O)Nc3cccc(C(=O)O)c3)c2)cc1 11.3 µM (active)

So what's the measured Potency for this one? O=C(O)c1ccccc1NC(=O)c1ccccc1Nc1ccccc1 inactive
